All values here come from paper PMC5755735.

Test: aqueous solubility
Format: physicochemical
Settings: universal aqueous buffer, 22.5 °C, pH 7.4, aqueous buffer, kinetic from dmso stock, ambient temperature, pH 7.4; guideline of Kerns et al. [40]; read-out: aqueous solubility class
Measurement type: solubility at 3 h

Requested field: solubility at 3 h. Item: Cc1cc(C)nc(N2CCN(C(=O)c3c[nH]c4ccccc34)CC2)n1 < 10 µg/mL
